B1: NCK2 (parent)
chain: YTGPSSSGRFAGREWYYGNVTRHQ

Variants of: B1
test-details: protein stability index of a GFP-peptide fusion (GPS, HEK-293T) (PSI 1-6); higher = more stable;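 note: lentivirally expressed fusions sorted by FACS into six bins by GFP to DsRed ratio, PSI derived from sequencing read proportions per bin multiplied by bin number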
assay-context: c terminus: a fixed tail appended
Threshold check on protein stability index: at or above 2 gives criterion met, strictly below gives criterion not met.

[
  {
    "sequence-variant": "S5G",
    "label-value": "criterion met"
  },
  {
    "sequence-variant": "Y17D",
    "label-value": "criterion met"
  },
  {
    "sequence-variant": "W15M",
    "label-value": "criterion met"
  },
  {
    "sequence-variant": "Q24F",
    "label-value": "criterion not met"
  },
  {
    "sequence-variant": "G3T",
    "label-value": "criterion not met"
  },
  {
    "sequence-variant": "S7T",
    "label-value": "criterion met"
  },
  {
    "sequence-variant": "H23W",
    "label-value": "criterion met"
  },
  {
    "sequence-variant": "G3Y",
    "label-value": "criterion met"
  },
  {
    "sequence-variant": "S6P",
    "label-value": "criterion not met"
  },
  {
    "sequence-variant": "G12Y",
    "label-value": "criterion met"
  }
]

Please look at the following variant next.
[in] Record "R13C" ; criterion: protein stability index no lower than 2. Met?
[out] criterion met
